Target: glucokinase (GK) (Homo sapiens, UniProt P35557)
Construct: I.D. No. 1 corresponds to residues 12-465 of glucokinase
Sequence (P35557 with tags, fused parts or gaps isoform P35557-2): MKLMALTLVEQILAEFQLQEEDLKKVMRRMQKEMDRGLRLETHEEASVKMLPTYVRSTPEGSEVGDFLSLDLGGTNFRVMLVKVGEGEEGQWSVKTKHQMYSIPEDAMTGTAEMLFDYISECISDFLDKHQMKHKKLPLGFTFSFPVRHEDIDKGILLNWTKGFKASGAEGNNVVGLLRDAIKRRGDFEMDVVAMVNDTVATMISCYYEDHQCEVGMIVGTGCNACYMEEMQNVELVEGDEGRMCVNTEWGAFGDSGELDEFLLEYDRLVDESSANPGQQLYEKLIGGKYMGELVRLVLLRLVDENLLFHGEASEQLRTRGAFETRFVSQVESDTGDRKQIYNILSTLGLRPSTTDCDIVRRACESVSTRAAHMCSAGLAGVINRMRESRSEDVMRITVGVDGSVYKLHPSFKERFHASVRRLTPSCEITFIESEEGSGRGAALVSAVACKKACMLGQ
Assay: enzymatic glucokinase activity assay (ATP consumption, KinaseGlo luminescence)
Conditions: recombinant GK residues 12-465; 5 μM ATP, 5 mM Glucose; Kact = concentration that displays 50% of the maximal increase in GK activity; read-out: pKact
pEC50: −log10 of the molar value.
Task for the reader: assign each of the following compounds its reported pEC50.

{"compound": "Cc1cc(S(=O)(=O)C2CC2)cc(=O)n1[C@@H](CC1CCCC1)C(=O)Nc1ccc(C(N)=O)cn1", "measurement": "4.80 to 5.80"}
{"compound": "CNS(=O)(=O)c1ccc(-c2cc(C)n([C@@H](CC3CCCCC3)C(=O)Nc3nccs3)c(=O)c2)cc1", "measurement": "< 4.80"}
{"compound": "Cc1ccc(CC(C(=O)Nc2nccs2)n2c(C)cc(S(=O)(=O)C3CCCC3)cc2=O)cc1 (stereo not drawn)", "measurement": "< 4.80"}
{"compound": "Cc1cc(-c2ncco2)cc(=O)n1C(CC1CCCCC1)C(=O)Nc1ncc(Cl)s1 (stereo not drawn)", "measurement": "4.80 to 5.80"}
{"compound": "Cc1cc(N2CCOCC2)cc(=O)n1[C@H](CC1CCCCC1)C(=O)Nc1nccs1 (stereo in doubt)", "measurement": "< 4.80"}
{"compound": "Cn1ccc(NC(=O)C(CC2CCOCC2)n2ccc(S(=O)(=O)C3CC3)cc2=O)n1 (stereo not drawn)", "measurement": "< 4.80"}
{"compound": "COc1ccc2nc(NC(=O)[C@@H](CC3CCCCC3)n3ccc(S(=O)(=O)C4CC4)cc3=O)sc2n1", "measurement": "4.80 to 5.80"}
{"compound": "COc1ccc2nc(NC(=O)[C@@H](CC3CCOCC3)n3c(C)cc(S(=O)(=O)c4ccoc4C)cc3=O)sc2n1", "measurement": "< 4.80"}
{"compound": "COc1ccc2nc(NC(=O)[C@@H](CC3CCCCC3)n3c(C)cc(S(=O)(=O)C4CC4)cc3=O)sc2n1", "measurement": "4.80 to 5.80"}
{"compound": "COc1ccc2nc(NC(=O)[C@H](CC3CCCCC3)n3c(C)cc(S(=O)(=O)C4CC4)cc3=O)sc2n1", "measurement": "> 5.80"}

Your task in this section: give pEC50 for each listed record.
1. CC#CCC(C(=O)Nc1ncc(Cl)s1)n1ccc(S(C)(=O)=O)cc1=O (stereo not drawn)
2. O=C(Nc1ncc(Cl)s1)C(CC1CCOCC1)n1cc(Cl)c(S(=O)(=O)C2CC2)cc1=O (stereo not drawn)
3. Cc1cc(-c2ccc(C#N)cc2)cc(=O)n1[C@@H](CC1CCCCC1)C(=O)Nc1nccs1
4. O=C(Nc1ncc(Cl)s1)[C@@H](CC1CCOCC1)n1ccc(S(=O)(=O)C2CCCC2)cc1=O
5. COCCC(C)(C)S(=O)(=O)c1ccn([C@@H](CC2CCOCC2)C(=O)Nc2nc3ccc(OC)nc3s2)c(=O)c1

RESULT:
< 4.80
4.80 to 5.80
4.80 to 5.80
< 4.80
4.80 to 5.80

The reported measurements were obtained from patent US8163779B2.
